molecular target: TLR2 (Homo sapiens, UniProt O60603); construct: host or cells: HEK293; experiment: HEK-TLR2 IL-8 secretion; format: cell-based; settings: 14 ng/ml, 24 h
Sequence (O60603 21-784): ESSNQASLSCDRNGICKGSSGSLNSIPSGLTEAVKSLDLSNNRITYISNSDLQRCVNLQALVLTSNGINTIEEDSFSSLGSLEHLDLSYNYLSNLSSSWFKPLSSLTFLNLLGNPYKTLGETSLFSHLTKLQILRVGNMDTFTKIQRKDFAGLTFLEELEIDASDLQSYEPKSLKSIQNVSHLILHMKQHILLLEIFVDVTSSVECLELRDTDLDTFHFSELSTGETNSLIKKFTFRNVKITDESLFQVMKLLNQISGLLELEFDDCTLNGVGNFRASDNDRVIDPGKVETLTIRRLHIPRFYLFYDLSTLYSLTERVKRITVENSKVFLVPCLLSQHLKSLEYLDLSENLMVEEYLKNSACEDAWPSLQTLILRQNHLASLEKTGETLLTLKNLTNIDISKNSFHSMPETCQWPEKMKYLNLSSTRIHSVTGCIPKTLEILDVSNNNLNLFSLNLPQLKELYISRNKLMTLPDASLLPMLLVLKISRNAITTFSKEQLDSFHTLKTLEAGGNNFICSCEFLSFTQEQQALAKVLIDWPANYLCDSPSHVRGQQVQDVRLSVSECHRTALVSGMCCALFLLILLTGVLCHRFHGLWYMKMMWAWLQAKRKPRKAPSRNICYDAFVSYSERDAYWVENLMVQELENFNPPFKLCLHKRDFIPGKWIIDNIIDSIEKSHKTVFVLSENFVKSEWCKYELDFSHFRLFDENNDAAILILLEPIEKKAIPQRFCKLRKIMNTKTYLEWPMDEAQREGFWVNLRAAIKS
Documented IL-8 secretion, mean across a set of compounds
Report only the number, with the unit pg/mL understood.

Here are 3 compounds together with their reported answers.
[[record]]
compound = "CCCCCCCCCCCC(=O)O[C@H](CCCCCCCCCCC)CC(=O)N[C@H]1[C@H](OC[C@H]2O[C@H](OCCC)[C@H](NC(=O)C[C@H](O)CCCCCCCCCCC)[C@@H](O)[C@@H]2O)O[C@H](CO)[C@@H](OP(=O)(O)O)[C@@H]1O"
property_name = "IL-8 secretion, mean"
units = "pg/mL"
observed = 0.19

[[record]]
compound = "CCCCCCCCCCCC(=O)O[C@H](CCCCCCCCCCC)CC(=O)N[C@H]1[C@H](OC[C@H]2O[C@H](OCCOP(=O)(O)O)[C@H](NC(=O)C[C@H](O)CCCCCCCCCCC)[C@@H](O)[C@@H]2O)O[C@H](CO)[C@@H](OP(=O)(O)O)[C@@H]1O"
property_name = "IL-8 secretion, mean"
units = "pg/mL"
observed = 0.12

[[record]]
compound = "CCCCCCCCCCCC(=O)O[C@H](CCCCCCCCCCC)CC(=O)N[C@H]1[C@H](OC[C@H]2O[C@H](OCC(O)CO)[C@H](NC(=O)C[C@H](O)CCCCCCCCCCC)[C@@H](O)[C@@H]2O)O[C@H](CO)[C@@H](OP(=O)(O)O)[C@@H]1O (stereo partly shown)"
property_name = "IL-8 secretion, mean"
units = "pg/mL"
observed = 0.06


(Q) So what's the measured IL-8 secretion, mean for this one? CCCCCCCCCCCC(=O)O[C@H](CCCCCCCCCCC)CC(=O)N[C@H]1[C@H](OC[C@H]2O[C@H](O)[C@H](NC(=O)C[C@H](O)CCCCCCCCCCC)[C@@H](O)[C@@H]2O)O[C@H](CO)[C@@H](OP(=O)(O)O)[C@@H]1O
(A) 0.07

---

target: TLR2 and CD14 (Homo sapiens, UniProt O60603); construct: expressed in transfected cells; host or cells: HEK (HEK-TLR2-CD14 cell line); test: HEK-TLR2-CD14 IL-8 secretion; type: cell-based; details: 41 ng/ml, 24 h
Sequence (O60603 21-784): as above
Known IL-8 secretion, mean of a selection of compounds
Numbers only here, please. The scale is pg/mL.

Here are 3 compounds together with their reported answers.
[[record]]
compound = "CCCCCCCCCCCC(=O)O[C@H](CCCCCCCCCCC)CC(=O)N[C@H]1[C@H](OC[C@H]2O[C@H](OCC(O)CO)[C@H](NC(=O)C[C@H](O)CCCCCCCCCCC)[C@@H](O)[C@@H]2O)O[C@H](CO)[C@@H](OP(=O)(O)O)[C@@H]1O (stereo partly shown)"
observed = 0.03

[[record]]
compound = "CCCCCCCCCCCC(=O)O[C@H](CCCCCCCCCCC)CC(=O)N[C@H]1[C@H](OC[C@H]2O[C@H](OCCOP(=O)(O)O)[C@H](NC(=O)C[C@H](O)CCCCCCCCCCC)[C@@H](O)[C@@H]2O)O[C@H](CO)[C@@H](OP(=O)(O)O)[C@@H]1O"
observed = 0.03

[[record]]
compound = "CCCCCCCCCCCC(=O)O[C@H](CCCCCCCCCCC)CC(=O)N[C@H]1[C@H](OC[C@H]2O[C@H](O)[C@H](NC(=O)C[C@H](O)CCCCCCCCCCC)[C@@H](O)[C@@H]2O)O[C@H](CO)[C@@H](OP(=O)(O)O)[C@@H]1O"
observed = 0.00


(Q) Please look up its IL-8 secretion, mean: CCCCCCCCCCCC(=O)O[C@H](CCCCCCCCCCC)CC(=O)N[C@H]1[C@H](OC[C@H]2O[C@H](OCCC)[C@H](NC(=O)C[C@H](O)CCCCCCCCCCC)[C@@H](O)[C@@H]2O)O[C@H](CO)[C@@H](OP(=O)(O)O)[C@@H]1O
(A) 0.14

---

target: TLR4 (Homo sapiens, UniProt O00206+Q9Y6Y9); construct: expressed in transfected cells; host or cells: HEK293; test: HEK-MD2-TLR4-CD14 IL-8 secretion; format: cell-based; details: 1111 ng/ml, 24 h
Sequence (O00206 24-839): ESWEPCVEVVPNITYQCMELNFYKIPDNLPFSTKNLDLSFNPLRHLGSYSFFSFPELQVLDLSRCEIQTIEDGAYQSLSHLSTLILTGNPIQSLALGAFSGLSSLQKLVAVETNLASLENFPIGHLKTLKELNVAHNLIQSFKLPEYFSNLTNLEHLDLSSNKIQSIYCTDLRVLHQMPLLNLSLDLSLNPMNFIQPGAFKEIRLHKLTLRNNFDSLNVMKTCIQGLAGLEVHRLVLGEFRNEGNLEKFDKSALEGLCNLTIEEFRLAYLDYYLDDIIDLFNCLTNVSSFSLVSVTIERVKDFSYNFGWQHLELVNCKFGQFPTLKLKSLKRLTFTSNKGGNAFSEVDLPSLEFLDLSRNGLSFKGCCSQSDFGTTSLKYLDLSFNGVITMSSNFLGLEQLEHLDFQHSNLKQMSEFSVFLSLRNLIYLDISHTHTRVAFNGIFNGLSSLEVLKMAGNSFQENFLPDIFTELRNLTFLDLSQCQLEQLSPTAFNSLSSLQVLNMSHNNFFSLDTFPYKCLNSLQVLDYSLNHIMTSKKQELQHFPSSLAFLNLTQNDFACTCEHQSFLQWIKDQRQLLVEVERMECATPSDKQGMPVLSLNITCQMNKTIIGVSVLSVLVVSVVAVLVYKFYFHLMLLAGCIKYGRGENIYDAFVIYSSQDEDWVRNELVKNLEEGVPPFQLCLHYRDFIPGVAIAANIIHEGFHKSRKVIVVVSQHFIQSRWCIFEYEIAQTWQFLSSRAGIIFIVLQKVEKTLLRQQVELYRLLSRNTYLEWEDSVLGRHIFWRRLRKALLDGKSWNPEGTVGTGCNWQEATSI
Sequence (Q9Y6Y9 17-160 limits assumed): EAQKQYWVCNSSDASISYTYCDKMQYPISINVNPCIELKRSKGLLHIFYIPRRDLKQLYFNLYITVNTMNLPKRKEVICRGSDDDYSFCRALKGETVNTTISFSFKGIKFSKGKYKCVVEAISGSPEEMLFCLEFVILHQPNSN
Property Name: IL-8 secretion, mean (pg/mL)
Numeric only. Scale: pg/mL

[[record]]
molecule = "CCCCCCCCCCCC(=O)O[C@H](CCCCCCCCCCC)CC(=O)N[C@H]1[C@H](OC[C@H]2O[C@H](O)[C@H](NC(=O)C[C@H](O)CCCCCCCCCCC)[C@@H](O)[C@@H]2O)O[C@H](CO)[C@@H](OP(=O)(O)O)[C@@H]1O [compound 16]"
target_of_assay = "TLR4 (Homo sapiens, UniProt O00206+Q9Y6Y9)"
property_name = "IL-8 secretion, mean"
observed = 1.60

[[record]]
molecule = "CCCCCCCCCCCC(=O)O[C@H](CCCCCCCCCCC)CC(=O)N[C@H]1[C@H](OC[C@H]2O[C@H](OCCOP(=O)(O)O)[C@H](NC(=O)C[C@H](O)CCCCCCCCCCC)[C@@H](O)[C@@H]2O)O[C@H](CO)[C@@H](OP(=O)(O)O)[C@@H]1O [compound 33]"
target_of_assay = "TLR4 (Homo sapiens, UniProt O00206+Q9Y6Y9)"
property_name = "IL-8 secretion, mean"
observed = 1.58

[[record]]
molecule = "CCCCCCCCCCCC(=O)O[C@H](CCCCCCCCCCC)CC(=O)N[C@H]1[C@H](OC[C@H]2O[C@H](OCCC)[C@H](NC(=O)C[C@H](O)CCCCCCCCCCC)[C@@H](O)[C@@H]2O)O[C@H](CO)[C@@H](OP(=O)(O)O)[C@@H]1O [compound 17]"
target_of_assay = "TLR4 (Homo sapiens, UniProt O00206+Q9Y6Y9)"
property_name = "IL-8 secretion, mean"
observed = 1.94


(Q) Reported IL-8 secretion, mean, molecule CCCCCCCCCCCC(=O)O[C@H](CCCCCCCCCCC)CC(=O)N[C@H]1[C@H](OC[C@H]2O[C@H](OCC(O)CO)[C@H](NC(=O)C[C@H](O)CCCCCCCCCCC)[C@@H](O)[C@@H]2O)O[C@H](CO)[C@@H](OP(=O)(O)O)[C@@H]1O (stereo partly shown) [compound 19] : ____
(A) 1.73

---

target: TLR4 (Homo sapiens, UniProt O00206+Q9Y6Y9); construct: expressed in transfected cells; host or cells: HEK293; experiment: HEK-MD2-TLR4-CD14 IL-8 secretion; type: cell-based; details: 41 ng/ml, 24 h
Property Name: IL-8 secretion, mean (pg/mL)
Numeric answer only, unit pg/mL assumed.

Solved cases (3 shown):
[[record]]
compound = "CCCCCCCCCCCC(=O)O[C@H](CCCCCCCCCCC)CC(=O)N[C@H]1[C@H](OC[C@H]2O[C@H](OCCOP(=O)(O)O)[C@H](NC(=O)C[C@H](O)CCCCCCCCCCC)[C@@H](O)[C@@H]2O)O[C@H](CO)[C@@H](OP(=O)(O)O)[C@@H]1O [compound 33]"
units = "pg/mL"
observed = 1.79

[[record]]
compound = "CCCCCCCCCCCC(=O)O[C@H](CCCCCCCCCCC)CC(=O)N[C@H]1[C@H](OC[C@H]2O[C@H](OCCC)[C@H](NC(=O)C[C@H](O)CCCCCCCCCCC)[C@@H](O)[C@@H]2O)O[C@H](CO)[C@@H](OP(=O)(O)O)[C@@H]1O [compound 17]"
units = "pg/mL"
observed = 1.97

[[record]]
compound = "CCCCCCCCCCCC(=O)O[C@H](CCCCCCCCCCC)CC(=O)N[C@H]1[C@H](OC[C@H]2O[C@H](O)[C@H](NC(=O)C[C@H](O)CCCCCCCCCCC)[C@@H](O)[C@@H]2O)O[C@H](CO)[C@@H](OP(=O)(O)O)[C@@H]1O [compound 16]"
units = "pg/mL"
observed = 1.68


Here is the next item to consider.
(Q) Entry under review: CCCCCCCCCCCC(=O)O[C@H](CCCCCCCCCCC)CC(=O)N[C@H]1[C@H](OC[C@H]2O[C@H](OCC(O)CO)[C@H](NC(=O)C[C@H](O)CCCCCCCCCCC)[C@@H](O)[C@@H]2O)O[C@H](CO)[C@@H](OP(=O)(O)O)[C@@H]1O (stereo partly shown) [compound 19] . Reported IL-8 secretion, mean?
(A) 1.64

---

Item-by-item account of IL-8 secretion, mean
biological target: TLR2 and CD14 (Homo sapiens, UniProt O60603); construct: expressed in transfected cells; host or cells: HEK (HEK-TLR2-CD14 cell line); experiment: HEK-TLR2-CD14 IL-8 secretion; type: cell-based; settings: 370 ng/ml, 24 h
Give a bare numeral; the unit pg/mL is implied.

Answered cases to consult:
[[record]]
compound = "CCCCCCCCCCCC(=O)O[C@H](CCCCCCCCCCC)CC(=O)N[C@H]1[C@H](OC[C@H]2O[C@H](OCC(O)CO)[C@H](NC(=O)C[C@H](O)CCCCCCCCCCC)[C@@H](O)[C@@H]2O)O[C@H](CO)[C@@H](OP(=O)(O)O)[C@@H]1O (stereo partly shown) [compound 19]"
target_of_assay = "TLR2 and CD14 (Homo sapiens, UniProt O60603)"
observed = 0.10

[[record]]
compound = "CCCCCCCCCCCC(=O)O[C@H](CCCCCCCCCCC)CC(=O)N[C@H]1[C@H](OC[C@H]2O[C@H](O)[C@H](NC(=O)C[C@H](O)CCCCCCCCCCC)[C@@H](O)[C@@H]2O)O[C@H](CO)[C@@H](OP(=O)(O)O)[C@@H]1O [compound 16]"
target_of_assay = "TLR2 and CD14 (Homo sapiens, UniProt O60603)"
observed = 0.01

[[record]]
compound = "CCCCCCCCCCCC(=O)O[C@H](CCCCCCCCCCC)CC(=O)N[C@H]1[C@H](OC[C@H]2O[C@H](OCCC)[C@H](NC(=O)C[C@H](O)CCCCCCCCCCC)[C@@H](O)[C@@H]2O)O[C@H](CO)[C@@H](OP(=O)(O)O)[C@@H]1O [compound 17]"
target_of_assay = "TLR2 and CD14 (Homo sapiens, UniProt O60603)"
observed = 0.22


Next, consider the following compound.
(Q) What value of IL-8 secretion, mean on TLR2 and CD14 (Homo sapiens, UniProt O60603) does CCCCCCCCCCCC(=O)O[C@H](CCCCCCCCCCC)CC(=O)N[C@H]1[C@H](OC[C@H]2O[C@H](OCCOP(=O)(O)O)[C@H](NC(=O)C[C@H](O)CCCCCCCCCCC)[C@@H](O)[C@@H]2O)O[C@H](CO)[C@@H](OP(=O)(O)O)[C@@H]1O [compound 33] have?
(A) 0.19
